- Assay summary: A CellTox Green Cytotoxicity Assay to monitor cytotoxicity in HepG2 cells - 16 hour (AID 1224876); also: nearly all actives have a fitted effect of over 45% in size
- Setup conditions: CellTox Green fluorescence; series mostly up to 76.8 µM
Records with an inconclusive call do not appear. Calls of active or inactive are those of the source. Calls follow the shape of the dose curve; as a rule, active = well fitted activation curve with a large enough effect in the repeat runs; inconclusive = weak or mixed curves; inactive = flat fitted curve, though single readings scatter.
Outcomes you can answer with include only these: active, inactive

O=C(/C=C/C=C/c1ccc2c(c1)OCO2)N1CCCCC1 :: inactive
Cn1cnc([N+](=O)[O-])c1Sc1ncnc2nc[nH]c12 :: inactive

Q: What was the test verdict on `CC(=O)O[C@]1(C(C)=O)CC[C@H]2[C@@H]3C=C(Cl)C4=CC(=O)[C@@H]5C[C@@H]5[C@]4(C)[C@H]3CC[C@@]21C` ?
Ans: inactive

Q: What was the test verdict on `COc1ccccc1/C=C/C=O` ?
Ans: inactive
